Test target: T1, phosphorylated human tau protein (human, UniProt P10636-8 1-441, limits assumed, S422 phosphorylation)
T1 construct: also called pTau
T1 sequence (P10636 other isoform, or with tags, fused parts or gaps limits assumed): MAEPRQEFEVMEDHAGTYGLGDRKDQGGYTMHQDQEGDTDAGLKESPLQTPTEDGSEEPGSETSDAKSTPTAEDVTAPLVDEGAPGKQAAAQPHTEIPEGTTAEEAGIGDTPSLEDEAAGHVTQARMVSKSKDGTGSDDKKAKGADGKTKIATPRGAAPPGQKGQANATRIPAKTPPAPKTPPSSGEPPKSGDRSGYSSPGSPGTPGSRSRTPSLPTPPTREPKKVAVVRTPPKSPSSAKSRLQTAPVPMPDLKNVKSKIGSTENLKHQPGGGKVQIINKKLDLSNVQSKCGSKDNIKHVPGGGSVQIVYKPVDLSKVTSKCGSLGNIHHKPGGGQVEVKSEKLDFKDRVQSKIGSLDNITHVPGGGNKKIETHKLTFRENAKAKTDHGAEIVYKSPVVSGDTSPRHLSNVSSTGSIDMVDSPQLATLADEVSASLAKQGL
Procedure text: SPR BIAcore
Property name: BL (RU)
Reply with just the number (in RU).

Some solved cases for reference:
Rb86 HC 002--IMGT_hVH_3_23 / LC Rb86 (antibody, V domains shown) VH: QSVLESGGGLVQPGGSLRLSCAASGFSLSSNAINWVRQAPGKGLEWVGYIAVSGNTYYASWAKGRFTISRDNSKNTLYLQMNSLRAEDTAVYYCGKSNIWGPGTLVTVSS VL: AQVLTQTTSPVSAAVGSTVTISCQSSQSVRTNKLAWFQQKPGQPPKRLIYSASTLDFGVPSRFSASGSGTQFTLTISDVQCDDAATYYCLGYFDCSIADCVAFGGGTEVVVK : 225
Rb86 HC 001_IGHV3_23_04 / LC Rb86 (antibody, V domains shown) VH: QQLVESGGGLVQPGGSLRLSCAASGFSLSSNAINWVRQAPGKGLEWVGYIAVSGNTYYASWAKGRFTISRDNSKNTLYLQMNSLRAEDTAVYYCGKSNIWGQGTLVTVSS VL: AQVLTQTTSPVSAAVGSTVTISCQSSQSVRTNKLAWFQQKPGQPPKRLIYSASTLDFGVPSRFSASGSGTQFTLTISDVQCDDAATYYCLGYFDCSIADCVAFGGGTEVVVK : 197
Rb86 HC 001_IGHV3_23_04 / LC 017--IMGT_hVK_1_17 (antibody, V domains shown) VH: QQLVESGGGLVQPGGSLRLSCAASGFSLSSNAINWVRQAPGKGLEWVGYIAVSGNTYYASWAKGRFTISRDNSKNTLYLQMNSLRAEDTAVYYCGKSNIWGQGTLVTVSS VL: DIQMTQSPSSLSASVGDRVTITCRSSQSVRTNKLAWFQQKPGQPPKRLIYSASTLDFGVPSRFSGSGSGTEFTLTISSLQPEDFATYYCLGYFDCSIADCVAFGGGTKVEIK : 91.1
Rb86 HC 001_IGHV3_23_04 / LC 015--IMGT_hVK_1_17 (antibody, V domains shown) VH: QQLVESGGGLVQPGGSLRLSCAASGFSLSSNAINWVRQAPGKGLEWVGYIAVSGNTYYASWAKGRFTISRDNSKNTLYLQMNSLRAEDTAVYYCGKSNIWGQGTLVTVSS VL: DIQMTQSPSSLSASVGDRVTITCRASQGVRTNKLAWFQQKPGQPPKRLIYSASTLQSGVPSRFSGSGSGTEFTLTISSLQPEDFATYYCLGYFDSSIADSVAFGGGTKVEIK : 63.6
Rb86 HC 001_IGHV3_23_04 / LC 006--IMGT_hVK_7_3 (antibody, V domains shown) VH: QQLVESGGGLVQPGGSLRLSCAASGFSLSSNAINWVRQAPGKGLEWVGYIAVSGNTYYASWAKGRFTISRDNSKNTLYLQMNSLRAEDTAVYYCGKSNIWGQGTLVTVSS VL: DIVLTQSPASLAVSPGQRATITCQSSQSVRTNKLAWFQQKPGQPPKRLIYSASTLDFGVPARFSGSGSGTDFTLTINPVEANDTANYYCLGYFDCSIADCVAFGGGTKVEIK : 97.9

Task item: Which BL value belongs to Rb86 HC 001_IGHV3_23_04 / LC 014--IMGT_hVK_1_17 (antibody, V domains shown) VH: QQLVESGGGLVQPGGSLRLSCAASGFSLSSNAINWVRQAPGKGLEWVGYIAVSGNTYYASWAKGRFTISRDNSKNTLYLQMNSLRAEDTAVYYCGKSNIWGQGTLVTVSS VL: DIQMTQSPSSLSASVGDRVTITCRASQGVRTNKLAWFQQKPGQPPKRLIYSASTLQSGVPSRFSGSGSGTEFTLTISSLQSEDFATYYCLGYFDCSIADCVAFGGGTKVEIK ?
Reply: 96.2

Task item: Which BL value belongs to Rb86 HC Rb86 / LC 014--IMGT_hVK_1_17 (antibody, V domains shown) VH: QSVEESGGRLVTPGTPLTLTCTVSGFSLSSNAINWVRQAPGKGLEWIGYIAVSGNTYYASWAKGRFTISKASTTVDLKMTSPTAEDTGTYFCGKSNIWGPGTLVTVSL VL: DIQMTQSPSSLSASVGDRVTITCRASQGVRTNKLAWFQQKPGQPPKRLIYSASTLQSGVPSRFSGSGSGTEFTLTISSLQSEDFATYYCLGYFDCSIADCVAFGGGTKVEIK ?
Reply: 150

Task item: Which BL value belongs to Rb86 HC 001_IGHV3_23_04 / LC 005--IMGT_hVK_4_1 (antibody, V domains shown) VH: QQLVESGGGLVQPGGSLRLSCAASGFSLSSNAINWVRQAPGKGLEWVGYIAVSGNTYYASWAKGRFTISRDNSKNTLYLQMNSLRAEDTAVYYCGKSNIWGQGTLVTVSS VL: DIVMTQSPDSLAVSLGERATINCKSSQSVRTNKLAWFQQKPGQPPKRLIYSASTLDSGVPDRFSGSGSGTDFTLTISSLQAEDVAVYYCLGYFDSSIADSVAFGGGTKVEIK ?
Reply: 62.9

Task item: Which BL value belongs to Rb86 HC 001_IGHV3_23_04 / LC 001--IMGT_hVK_1_5 (antibody, V domains shown) VH: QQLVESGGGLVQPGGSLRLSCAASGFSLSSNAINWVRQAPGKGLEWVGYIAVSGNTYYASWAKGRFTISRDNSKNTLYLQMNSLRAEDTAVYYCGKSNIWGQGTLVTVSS VL: DIQMTQSTSTLSASVGDRVTITCQSSQSVRTNKLAWFQQKPGKAPKRLIYSASTLDFGVPSRFSGSGSGTEFTLTISSLQPDDFATYYCLGYFDCSIADCVAFGGGTKVEIK ?
Reply: 101

Task item: Which BL value belongs to Rb86 HC 001_IGHV3_23_04 / LC 002--IMGT_hVK_4_1 (antibody, V domains shown) VH: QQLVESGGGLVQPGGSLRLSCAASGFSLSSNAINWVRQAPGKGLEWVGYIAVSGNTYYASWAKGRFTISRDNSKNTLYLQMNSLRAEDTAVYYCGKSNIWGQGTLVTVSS VL: AQVMTQSPDSLAVSLGERATINCKSSQSVRTNKLAWFQQKPGQPPKRLIYSASTLDSGVPDRFSGSGSGTDFTLTISSLQAEDVAVYYCLGYFDCSIADCVAFGGGTKVEIK ?
Reply: 108
